Target: Bcl-2-like protein 1 (Homo sapiens)
Sequence (Q07817 whole entry): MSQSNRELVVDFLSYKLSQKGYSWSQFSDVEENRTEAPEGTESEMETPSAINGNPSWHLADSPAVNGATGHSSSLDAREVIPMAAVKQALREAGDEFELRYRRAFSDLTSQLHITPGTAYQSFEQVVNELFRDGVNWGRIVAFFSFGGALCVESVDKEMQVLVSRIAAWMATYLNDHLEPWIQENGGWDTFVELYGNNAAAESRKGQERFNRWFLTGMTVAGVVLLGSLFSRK
Test: Displacement of FITC-labeled BH3 peptide from human Bcl-XL after 1 hr by fluorescence polarization assay
# maps each entry to its IC50

[
  {
    "compound": "COc1ccc(C2C3=C(N=c4s/c(=C\\c5ccc(OCc6cccc(C(=O)O)c6)c(OC)c5)c(=O)n42)c2ccccc2CC3)cc1 (stereo not given)",
    "unitLabel": "µM",
    "IC50": 17.4
  },
  {
    "compound": "O=C(O)c1cccc(-c2ccc(/C=c3\\sc4n(c3=O)C(c3cccc(F)c3)C3=C(N=4)c4ccccc4CC3)o2)c1 (stereo not given)",
    "unitLabel": "µM",
    "IC50": 3
  },
  {
    "compound": "COc1cccc(C2C3=C(N=c4s/c(=C\\c5ccc(-c6cccc(C(=O)O)c6)o5)c(=O)n42)c2ccccc2CC3)c1 (stereo not given)",
    "unitLabel": "µM",
    "IC50": 7.3
  },
  {
    "compound": "COc1ccc(C2C3=C(N=c4s/c(=C\\c5ccc(-c6cccc(C(=O)O)c6)o5)c(=O)n42)c2ccccc2CC3)cc1 (stereo not given)",
    "unitLabel": "µM",
    "IC50": 6.9
  },
  {
    "compound": "COc1ccccc1C1C2=C(N=c3s/c(=C\\c4cccc(OCC(=O)O)c4)c(=O)n31)c1ccccc1CC2 (stereo not given)",
    "unitLabel": "µM",
    "IC50": 3.4
  }
]

====

The following compounds are shown together with reported IC50 values.
Biological target: UniProtKB Q07817
Assay: Inhibition of human Bcl-XL

[
  {
    "compound": "COc1ccccc1C1C2=C(N=c3s/c(=C\\c4ccc(-c5cccc(C(=O)O)c5)cc4)c(=O)n31)c1ccccc1CC2 (stereo unspecified)",
    "testSystem": "UniProtKB Q07817",
    "unitLabel": "µM",
    "relationQualifier": "=",
    "IC50": 26.7
  },
  {
    "compound": "COc1cccc(C2C3=C(N=c4s/c(=C\\c5ccc(-c6cccc(C(=O)O)c6)o5)c(=O)n42)c2ccccc2CC3)c1 (stereo unspecified)",
    "testSystem": "UniProtKB Q07817",
    "unitLabel": "µM",
    "relationQualifier": "=",
    "IC50": 7.3
  },
  {
    "compound": "CC(C)C(C(=O)O)C1C(=O)/C(=C/c2ccc(Br)cc2)SC1=S (stereo unspecified)",
    "testSystem": "UniProtKB Q07817",
    "unitLabel": "µM",
    "relationQualifier": "=",
    "IC50": 6.2
  },
  {
    "compound": "O=C(O)c1cccc(-c2ccc(/C=c3\\sc4n(c3=O)C(c3cccc([N+](=O)[O-])c3)C3=C(N=4)c4ccccc4CC3)o2)c1 (stereo unspecified)",
    "testSystem": "UniProtKB Q07817",
    "unitLabel": "µM",
    "relationQualifier": "=",
    "IC50": 1.9
  },
  {
    "compound": "O=C(O)COc1cccc(/C=c2\\sc3n(c2=O)C(c2cccc(F)c2)C2=C(N=3)/C(=C/c3cccc(F)c3)CCC2)c1 (stereo unspecified)",
    "testSystem": "UniProtKB Q07817",
    "unitLabel": "µM",
    "relationQualifier": ">",
    "IC50": 100
  },
  {
    "compound": "COc1ccccc1C1C2=C(N=c3s/c(=C\\c4ccc(OCC(=O)O)cc4)c(=O)n31)c1ccccc1CC2 (stereo unspecified)",
    "testSystem": "UniProtKB Q07817",
    "unitLabel": "µM",
    "relationQualifier": "=",
    "IC50": 36
  },
  {
    "compound": "COc1ccccc1C1C2=C(N=c3s/c(=C\\c4cccc(OCC(=O)O)c4)c(=O)n31)c1cccc(OCc3ccccc3)c1CC2 (stereo unspecified)",
    "testSystem": "UniProtKB Q07817",
    "unitLabel": "µM",
    "relationQualifier": ">",
    "IC50": 100
  },
  {
    "compound": "COc1ccc(C2C3=C(N=c4s/c(=C\\c5ccc(OCc6cccc(C(=O)O)c6)c(OC)c5)c(=O)n42)c2ccccc2CC3)cc1 (stereo unspecified)",
    "testSystem": "UniProtKB Q07817",
    "unitLabel": "µM",
    "relationQualifier": "=",
    "IC50": 17.4
  },
  {
    "compound": "COc1ccccc1C1C2=C(N=c3s/c(=C\\c4ccccc4OCC(=O)O)c(=O)n31)c1ccccc1CC2 (stereo unspecified)",
    "testSystem": "UniProtKB Q07817",
    "unitLabel": "µM",
    "relationQualifier": "=",
    "IC50": 12.1
  },
  {
    "compound": "COc1ccccc1C1C2=C(N=c3s/c(=C\\c4cccc(OCC(=O)O)c4)c(=O)n31)c1ccccc1CC2 (stereo unspecified)",
    "testSystem": "UniProtKB Q07817",
    "unitLabel": "µM",
    "relationQualifier": "=",
    "IC50": 3.4
  },
  {
    "compound": "COc1ccc2c(c1)CCC1=C2N=c2s/c(=C\\c3cccc(OCC(=O)O)c3)c(=O)n2C1c1ccccc1OC (stereo unspecified)",
    "testSystem": "UniProtKB Q07817",
    "unitLabel": "µM",
    "relationQualifier": ">",
    "IC50": 100
  },
  {
    "compound": "O=C(O)c1cccc(-c2ccc(/C=c3\\sc4n(c3=O)C(c3ccc(F)cc3)C3=C(N=4)c4ccccc4CC3)o2)c1 (stereo unspecified)",
    "testSystem": "UniProtKB Q07817",
    "unitLabel": "µM",
    "relationQualifier": "=",
    "IC50": 5.2
  },
  {
    "compound": "O=C(O)COc1cccc(/C=c2\\sc3n(c2=O)C(c2ccco2)C2=C(N=3)c3ccccc3CC2)c1 (stereo unspecified)",
    "testSystem": "UniProtKB Q07817",
    "unitLabel": "µM",
    "relationQualifier": "=",
    "IC50": 40.4
  },
  {
    "compound": "O=C(O)c1cccc(-c2ccc(/C=c3\\sc4n(c3=O)C(c3ccccc3)C3=C(N=4)c4ccccc4CC3)o2)c1 (stereo unspecified)",
    "testSystem": "UniProtKB Q07817",
    "unitLabel": "µM",
    "relationQualifier": "=",
    "IC50": 12.6
  },
  {
    "compound": "O=C(O)c1cccc(-c2ccc(/C=c3\\sc4n(c3=O)C(c3cccc5ccccc35)C3=C(N=4)c4ccccc4CC3)o2)c1 (stereo unspecified)",
    "testSystem": "UniProtKB Q07817",
    "unitLabel": "µM",
    "relationQualifier": "=",
    "IC50": 13.4
  },
  {
    "compound": "COc1ccccc1C1C2=C(N=c3s/c(=C\\c4ccc(C(=O)O)cc4)c(=O)n31)c1ccccc1CC2 (stereo unspecified)",
    "testSystem": "UniProtKB Q07817",
    "unitLabel": "µM",
    "relationQualifier": "=",
    "IC50": 12.6
  }
]

====

Test system: OVCAR-3
Test: Cytotoxicity against human OVCAR-3 cells after 48 hrs by MTT assay
Details: OVCAR-3, 48 h
pEC50: −log10 of the molar value.
So basically: pEC50 at 5 or higher? That is true (1). Lower than 5? That is false (0).

[
  {
    "molecule": "O=C(O)c1cccc(-c2ccc(/C=c3\\sc4n(c3=O)C(c3ccc(F)cc3)C3=C(N=4)c4ccccc4CC3)o2)c1 (centres undefined)",
    "class": "true (1)"
  },
  {
    "molecule": "O=C(O)c1cccc(-c2ccc(/C=c3\\sc4n(c3=O)C(c3cccc5ccccc35)C3=C(N=4)c4ccccc4CC3)o2)c1 (centres undefined)",
    "class": "false (0)"
  },
  {
    "molecule": "COc1ccccc1C1C=C(c2ccccc2)N=c2s/c(=C\\c3cccc(OCC(=O)O)c3)c(=O)n21 (centres undefined)",
    "class": "false (0)"
  },
  {
    "molecule": "COc1ccccc1C1C2=C(N=c3s/c(=C\\c4ccc(C(=O)O)cc4)c(=O)n31)c1ccccc1CC2 (centres undefined)",
    "class": "true (1)"
  },
  {
    "molecule": "CCOC(=O)COc1cccc(/C=c2\\sc3n(c2=O)C(c2ccccc2OC)C2=C(N=3)c3ccccc3CC2)c1 (centres undefined)",
    "class": "false (0)"
  }
]

====

Assay: Cytotoxicity against human Bel7404 cells after 48 hrs by MTT assay
Conditions: BEL-7404, 48 h
pEC50: −log10 of the molar value.
pEC50 overview

[
  {
    "compound": "COc1ccccc1C1C2=C(N=c3s/c(=C\\c4ccc(-c5cccc(C(=O)O)c5)o4)c(=O)n31)c1ccccc1CC2 (centres undefined)",
    "pEC50": 3.86
  },
  {
    "compound": "COc1ccccc1C1C2=C(N=c3s/c(=C\\c4ccccc4OCC(=O)O)c(=O)n31)c1ccccc1CC2 (centres undefined)",
    "pEC50": 5.02
  },
  {
    "compound": "O=C(O)c1cccc(-c2ccc(/C=c3\\sc4n(c3=O)C(c3cccc5ccccc35)C3=C(N=4)c4ccccc4CC3)o2)c1 (centres undefined)",
    "pEC50": 3.69
  },
  {
    "compound": "COc1ccccc1C1C2=C(N=c3s/c(=C\\c4cccc(OCC(=O)O)c4)c(=O)n31)c1ccccc1CC2 (centres undefined)",
    "pEC50": 5.10
  }
]
